system: U2OS; test: Multiplex assay against U2OS; type: toxicity, cell-based; settings: human, 48 h, 1 µM, compound concentration 1 uM, replicate 1
Some compounds, each annotated with its measured Population Mitotic Cells (%).

- given smiles: "O=C1N/C(=N/c2ccccc2F)S/C1=C\\c1ccc(C(=O)O)cc1"
  measurement unit: "%"
  Population Mitotic Cells (%): 72
- given smiles: "CCn1c(=O)c(-c2ccc(-c3cncs3)cc2Cl)cc2cnc(Nc3ccc(N4CCN(C)CC4)cc3)nc21"
  measurement unit: "%"
  Population Mitotic Cells (%): 40
- given smiles: "Cc1ccc(C(=O)Nc2cccc(C(F)(F)F)c2)cc1Nc1nc(-c2cccnc2)nc2c1cnn2C"
  measurement unit: "%"
  Population Mitotic Cells (%): 41
- given smiles: "O=C(Nc1ccc(Cl)cc1)Nc1cccc(-c2cccc(N3CCCC3)n2)c1"
  measurement unit: "%"
  Population Mitotic Cells (%): 69

====

tested on: U2OS; experiment: Multiplex assay against U2OS; type: toxicity, cell-based; conditions: human, 24 h, 1 µM, compound concentration 1 uM, replicate 2
Some compounds, each annotated with its measured Population Mitochondria Different-Phenotype (%).
experimental endpoint: Population Mitochondria Different-Phenotype (%)

- compound: "Cc1ccc(C(=O)Nc2cccc(C(F)(F)F)c2)cc1Nc1nc(-c2cccnc2)nc2c1cnn2C"
  target desc: "U2OS"
  measurement unit: "%"
  value measured: 29
- compound: "S=C(NCCCc1c[nH]cn1)NCCCN(Cc1ccc(Cl)c(Cl)c1)c1ccc(Br)cn1"
  target desc: "U2OS"
  measurement unit: "%"
  value measured: 8
- compound: "Cc1ccc2nc(NCCN)c3ncc(C)n3c2c1.O=C(O)C(F)(F)F.O=C(O)C(F)(F)F"
  target desc: "U2OS"
  measurement unit: "%"
  value measured: 32
- compound: "Cn1nc(C(F)(F)F)cc1-c1cnc(N2CCc3cc(S(=O)(=O)Nc4c(F)cc(Cl)cc4F)cc(N4CCCC4=O)c32)nc1 [TP-020]"
  target desc: "U2OS"
  measurement unit: "%"
  value measured: 23
- compound: "COc1ccc(-c2ccc3c(N4CCOCC4)nc(N4C[C@@H](C)O[C@@H](C)C4)nc3n2)cc1CO [Ku-0063794]"
  target desc: "U2OS"
  measurement unit: "%"
  value measured: 34
- compound: "COc1cc(N2CCN(C)CC2)ccc1Nc1ncc2c(n1)N(C)c1ccccc1C(=O)N2C"
  target desc: "U2OS"
  measurement unit: "%"
  value measured: 12

====

system: Fibroblast; test: Multiplex assay against human fibroblast; type: toxicity, cell-based; settings: 12 h, 1 µM, compound concentration 1 uM, replicate 2

- compound: "C=C1/C(=C\\C=C2/CCC[C@]3(C)[C@@H]([C@H](C)/C=C/[C@H](C)C(C)C)CC[C@@H]23)C[C@@H](O)C[C@@H]1O [DOXERCALCIFEROL]"
  target desc: "Fibroblast"
  Population Fragmented Nuclei (%): 1
- compound: "COc1cc(N2CCN(C)CC2)ccc1Nc1ncc2c(n1)N(C)c1ccccc1C(=O)N2C"
  target desc: "Fibroblast"
  Population Fragmented Nuclei (%): 5
- compound: "O=C(Nc1ccc(Cl)cc1)Nc1cccc(-c2cccc(N3CCCC3)n2)c1"
  target desc: "Fibroblast"
  Population Fragmented Nuclei (%): 17
- compound: "CN[C@@H]1C[C@H]2O[C@@](C)([C@@H]1OC)n1c3ccccc3c3c4c(c5c6ccccc6n2c5c31)C(=O)NC4 [STAUROSPORINE]"
  target desc: "Fibroblast"
  Population Fragmented Nuclei (%): 48
- compound: "CCn1cc(-c2ccnc3[nH]c(-c4cccc(CN(C)C)c4)cc23)c(-c2ccc(NC(=O)N(C)C)cc2)n1 [GSK-1070916]"
  target desc: "Fibroblast"
  Population Fragmented Nuclei (%): 56
- compound: "CCc1cccc(CC)c1NC(=O)c1nn(C)c2c1CCc1cnc(Nc3ccc(C(=O)NC4CCN(C)CC4)cc3OC(F)(F)F)nc1-2"
  target desc: "Fibroblast"
  Population Fragmented Nuclei (%): 1
- compound: "O=C(Nc1cccnn1)N1CCC(=Cc2cccc(Oc3ccc(C(F)(F)F)cn3)c2)CC1"
  target desc: "Fibroblast"
  Population Fragmented Nuclei (%): 71
- compound: "COc1cc2ncnc(Nc3ccc(F)c(Cl)c3)c2cc1NC(=O)/C=C/CN1CCCCC1 [DACOMITINIB ANHYDROUS]"
  target desc: "Fibroblast"
  Population Fragmented Nuclei (%): 56
- compound: "CCN1CCN(Cc2ccc(Nc3ncc(F)c(-c4cc(F)c5nc(C)n(C(C)C)c5c4)n3)nc2)CC1.CS(=O)(=O)O"
  target desc: "Fibroblast"
  Population Fragmented Nuclei (%): 17
- compound: "Cn1nc(C(F)(F)F)cc1-c1cnc(N2CCc3cc(S(=O)(=O)Nc4c(F)cc(Cl)cc4F)cc(N4CCCC4=O)c32)nc1 [TP-020]"
  target desc: "Fibroblast"
  Population Fragmented Nuclei (%): 56
- compound: "CNc1cc(Oc2cc(C(=O)Nc3cc(N4CCN(C)CC4)cc(C(F)(F)F)c3)ccc2C)ncn1"
  target desc: "Fibroblast"
  Population Fragmented Nuclei (%): 10
- compound: "COc1ccc(-c2ccc3c(N4CCOCC4)nc(N4C[C@@H](C)O[C@@H](C)C4)nc3n2)cc1CO [Ku-0063794]"
  target desc: "Fibroblast"
  Population Fragmented Nuclei (%): 61
- compound: "CCCn1c(=O)c2[nH]c(-c3cnn(Cc4cccc(C(F)(F)F)c4)c3)nc2n(CC)c1=O [GS 6201]"
  target desc: "Fibroblast"
  Population Fragmented Nuclei (%): 4
- compound: "CCOC(=O)c1c(C)[nH]c2ccc3c(c12)CN1CCc2cc(OC)ccc2C1O3 (stereo not given)"
  target desc: "Fibroblast"
  Population Fragmented Nuclei (%): 9
- compound: "CN(C)C(=O)C(CCN1CCC(O)(c2ccc(Cl)cc2)CC1)(c1ccccc1)c1ccccc1.Cl [LOPERAMIDE HYDROCHLORIDE]"
  target desc: "Fibroblast"
  Population Fragmented Nuclei (%): 5

====

test system: U2OS; assay: Multiplex assay against U2OS; assay type: toxicity, cell-based; details: human, 24 h, 1 µM, compound concentration 1 uM, replicate 1
Decide by Population Fragmented Nuclei (%): equal to or exceeding 9% means yes (1), less means no (0).

- compound: "CCCS(=O)(=O)c1nc(NC2CC2)cc(-c2ccc3c(ccn3C3CC(C)(C)NC(C)(C)C3)c2)n1"
  class: "yes (1)"
- compound: "O=C(Nc1ccc(Cl)cc1)Nc1cccc(-c2cccc(N3CCCC3)n2)c1"
  class: "no (0)"
- compound: "CN1C2CCC1CC(OC(c1ccc(F)cc1)c1ccc(F)cc1)C2.Cl (stereo not given)"
  class: "no (0)"
- compound: "CCN1CCN(Cc2ccc(Nc3ncc(F)c(-c4cc(F)c5nc(C)n(C(C)C)c5c4)n3)nc2)CC1.CS(=O)(=O)O"
  class: "yes (1)"
- compound: "CN[C@@H]1C[C@H]2O[C@@](C)([C@@H]1OC)n1c3ccccc3c3c4c(c5c6ccccc6n2c5c31)C(=O)NC4"
  class: "yes (1)"
- compound: "C=CCn1c(=O)c2cnc(Nc3ccc(N4CCN(C)CC4)cc3)nc2n1-c1cccc(C(C)(C)O)n1"
  class: "yes (1)"
- compound: "O=C(Cc1ccc(-c2ccc(OCCN3CCOCC3)cc2)cn1)NCc1ccccc1"
  class: "yes (1)"

====

Some compounds, each annotated with its measured Population Tubulin-Different-Phenotype (%).
test system: Fibroblast; test: Multiplex assay against human fibroblast; format: toxicity, cell-based; conditions: 48 h, 10 µM, compound concentration 10 uM, replicate 2
experimental endpoint: Population Tubulin-Different-Phenotype (%)

- compound: "Cc1cn(-c2cc(NC(=O)c3ccc(C)c(Nc4nccc(-c5cccnc5)n4)c3)cc(C(F)(F)F)c2)cn1"
  target desc: "Fibroblast"
  measurement unit: "%"
  value measured: 81
- compound: "CCc1cccc(CC)c1NC(=O)c1nn(C)c2c1CCc1cnc(Nc3ccc(C(=O)NC4CCN(C)CC4)cc3OC(F)(F)F)nc1-2"
  target desc: "Fibroblast"
  measurement unit: "%"
  value measured: 43
- compound: "COCC(=O)NC/C=C/c1ccc2ncnc(Nc3ccc(Oc4ccc(C)nc4)c(C)c3)c2c1"
  target desc: "Fibroblast"
  measurement unit: "%"
  value measured: 94
- compound: "CCOc1cc(C(=O)N2CCC(N3CCN(C)CC3)CC2)ccc1Nc1ncc2c(n1)N(C1CCCC1)c1ccccc1C(=O)N2C"
  target desc: "Fibroblast"
  measurement unit: "%"
  value measured: 89
- compound: "CNc1cc(Oc2cc(C(=O)Nc3cc(N4CCN(C)CC4)cc(C(F)(F)F)c3)ccc2C)ncn1"
  target desc: "Fibroblast"
  measurement unit: "%"
  value measured: 80
- compound: "O=C1NC(=O)C(c2cnc3ccccn23)=C1c1cn2c3c(cc(F)cc13)CN(C(=O)N1CCCCC1)CC2"
  target desc: "Fibroblast"
  measurement unit: "%"
  value measured: 85
- compound: "O=C1N/C(=N/c2ccccc2F)S/C1=C\\c1ccc(C(=O)O)cc1"
  target desc: "Fibroblast"
  measurement unit: "%"
  value measured: 18
- compound: "CN1CCC(=C2c3ccccc3CC(=O)c3sccc32)CC1.O=C(O)/C=C/C(=O)O [KETOTIFEN FUMARATE]"
  target desc: "Fibroblast"
  measurement unit: "%"
  value measured: 86
- compound: "C=C1/C(=C\\C=C2/CCC[C@]3(C)[C@@H]([C@H](C)/C=C/[C@H](C)C(C)C)CC[C@@H]23)C[C@@H](O)C[C@@H]1O"
  target desc: "Fibroblast"
  measurement unit: "%"
  value measured: 49
- compound: "O=C(Nc1ccc(-n2nc(-c3cccnc3)cc2C(F)(F)F)cn1)c1ccc(-c2ccccc2)c(F)c1"
  target desc: "Fibroblast"
  measurement unit: "%"
  value measured: 35
